SYSTEM: human mGlu5a receptor (Homo sapiens, UniProt P41594)
Construct: expressed in transfected cells
Sequence (P41594 21-1180 isoform P41594-2 limits assumed): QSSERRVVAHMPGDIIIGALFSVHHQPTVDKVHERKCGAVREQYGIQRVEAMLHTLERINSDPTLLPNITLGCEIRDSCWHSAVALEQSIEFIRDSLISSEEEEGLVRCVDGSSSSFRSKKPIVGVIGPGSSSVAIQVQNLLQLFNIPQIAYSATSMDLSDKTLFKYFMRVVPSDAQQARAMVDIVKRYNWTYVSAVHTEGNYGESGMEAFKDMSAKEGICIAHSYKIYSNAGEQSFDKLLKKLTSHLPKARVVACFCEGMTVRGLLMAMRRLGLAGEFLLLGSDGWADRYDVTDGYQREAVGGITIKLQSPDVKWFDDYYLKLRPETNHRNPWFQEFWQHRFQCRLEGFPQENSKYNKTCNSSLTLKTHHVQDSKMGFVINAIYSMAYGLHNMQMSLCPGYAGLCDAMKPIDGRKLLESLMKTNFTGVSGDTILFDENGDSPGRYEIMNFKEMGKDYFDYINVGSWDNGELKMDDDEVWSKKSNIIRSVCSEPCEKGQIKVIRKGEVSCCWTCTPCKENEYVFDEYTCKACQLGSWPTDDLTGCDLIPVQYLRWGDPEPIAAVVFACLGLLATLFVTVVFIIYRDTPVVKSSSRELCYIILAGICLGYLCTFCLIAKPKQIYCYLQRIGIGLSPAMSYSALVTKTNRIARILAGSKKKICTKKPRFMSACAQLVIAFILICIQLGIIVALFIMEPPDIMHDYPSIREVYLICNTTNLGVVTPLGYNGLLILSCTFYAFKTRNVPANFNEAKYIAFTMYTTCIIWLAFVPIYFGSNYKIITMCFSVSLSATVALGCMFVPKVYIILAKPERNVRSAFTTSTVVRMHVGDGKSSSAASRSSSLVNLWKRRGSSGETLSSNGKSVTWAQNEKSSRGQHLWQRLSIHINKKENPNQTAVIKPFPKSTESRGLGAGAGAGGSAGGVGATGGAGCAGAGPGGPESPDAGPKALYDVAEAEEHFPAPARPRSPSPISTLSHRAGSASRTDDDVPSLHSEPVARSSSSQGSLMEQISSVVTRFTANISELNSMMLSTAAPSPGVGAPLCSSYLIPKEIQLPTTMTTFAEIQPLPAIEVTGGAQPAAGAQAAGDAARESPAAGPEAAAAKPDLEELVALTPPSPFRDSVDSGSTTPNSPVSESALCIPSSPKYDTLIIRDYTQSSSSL
ASSAY SUMMARY: Intracellular Ca2+ mobilization assay (mGlu5 PAM)
Format: cell-based
REPORTED CONDITIONS: HEK-293 cells stably transfected with human mGlu5a receptor; L-glutamate added at EC20 (typically around 80 μM) after 10-30 min pre-incubation with test compound; read-out: EC50 (nM) mGlu5PAM
EXPERIMENTAL ENDPOINT: EC50 (nM)

Some solved entries appear below for comparison.
[
  {
    "COMPOUND": "CC(C)CC(=O)Nc1ccc(C#Cc2ccccc2)cn1",
    "EC50 / nM": 71
  },
  {
    "COMPOUND": "CSCC(=O)Nc1ccc(C#Cc2ccccc2)cn1",
    "EC50 / nM": 18
  },
  {
    "COMPOUND": "CCCC(=O)Nc1ccc(C#Cc2ccccc2)cn1",
    "EC50 / nM": 70
  },
  {
    "COMPOUND": "CC(C)(C)C(=O)Nc1ccc(C#Cc2cccc(F)c2)cn1",
    "EC50 / nM": 15
  },
  {
    "COMPOUND": "CC(C)(C(=O)Nc1ccc(C#Cc2cccc(Cl)c2)cn1)C(F)(F)F",
    "EC50 / nM": 19
  }
]

(P) COC(C)(C)C(=O)Nc1ccc(C#Cc2cccc(F)c2)cn1
(Q) COCC(=O)Nc1ccc(C#Cc2ccccc2)cn1
(R) CC(C)(C)C(=O)Nc1ccc(C#Cc2cccc(Cl)c2)nn1
# ascending order, key=EC50 Answer by listing the labels in the requested order.
R, Q, P
(R: 7 nM, Q: 49 nM, P: 85 nM)

(P) COC(C)(C)C(=O)Nc1ccc(C#Cc2ccccc2)cn1
(Q) CCCCC(=O)Nc1ccc(C#Cc2ccccc2)cn1
Could you check which of P and Q has a smaller value for EC50? Answer format: the label of the selected item.
Q

(P) COC(C)(C)C(=O)Nc1ccc(C#Cc2cc(F)ccc2F)cn1
(Q) CC(C)(C)C(=O)Nc1ncc(C#Cc2ccccc2)cn1
// task: argmin of EC50 over [ P , Q ] Output the label that corresponds to your choice.
Q

(A) CC(C)(C)C(=O)Nc1ccc(C#Cc2ccccc2)nn1
(B) CC(C)(C)C(=O)Nc1ccc(C#Cc2ccccc2)cn1
Select one. Lower EC50: A or B The response must carry the label of the picked entry.
A
